assay: Volume of distribution at steady state in rat at 0.5 mg/kg, iv; assay type: ADME, organism-based; design: dose 0.5 mg/kg, route intravenous; conditions: in vivo, read-out: Vdss

molecule	Vd / L/kg
CCCCC1C(=O)N(C[C@H]2CC[C@H](OCC)CC2)CCC12CCN(C1(C)CCN(C(=O)c3c(C)ncnc3C)CC1)CC2 (stereo partly specified)	4.71

---

test: Half life in rat at 0.5 mg/kg, iv; assay type: ADME, organism-based; parameters: dose 0.5 mg/kg, route intravenous; conditions: in vivo

molecule	measure-unit	half-life
CCCCC1C(=O)N(C[C@H]2CC[C@H](OCC)CC2)CCC12CCN(C1(C)CCN(C(=O)c3c(C)ncnc3C)CC1)CC2 (stereo partly specified)	h	3.8

Data provenance: ChEMBL document CHEMBL1139267
